test system: MV4-11 (expressing FLT3/ITD mutant gene); experiment: Cell proliferation, Cell Titer-Glo, MV4-11; format: cell-based; conditions: Homo sapiens, MV4-11; incubated for 72 hours; read-out: MV4-11 IC50
Recorded pIC50 by entry
Please express pIC50 as -log10 of the molar concentration.

Solved entries:
chemical_structure=NC(=O)C(=O)N1CCC[C@@H](n2nc(-c3ccc(Oc4ccccc4)cc3)c3c(N)ncnc32)C1 test_system="MV4-11 (expressing FLT3/ITD mutant gene)" result=6.92
chemical_structure=CC(C)(C)OC(=O)NCC(=O)N1CC[C@@H](n2nc(-c3ccc(Oc4ccccc4)cc3)c3c(N)ncnc32)C1 test_system="MV4-11 (expressing FLT3/ITD mutant gene)" result=6.14

// below: pIC50 requested for another compound
Query :: Param item = `NCC(=O)N1CCC[C@@H](n2nc(-c3ccc(Oc4ccccc4)cc3)c3c(N)ncnc32)C1` ; retrieve measured pIC50.
Result :: 7.66
